- experiment-notes: NCI Yeast Anticancer Drug Screen. Data for the bub3 strain (AID 167)
- protocol-conditions: S. cerevisiae bub3 mutant strain, at 50.0 µM, active compounds read high
Compounds without any hit were thinned out: in the full panel of roughly 79,000, 15% have a hit.
assay-endpoint: growth inhibition (%)
Give bare numbers, in %.

Lab note: each compound below needs its growth inhibition filled in.
1. NC1CCCCC1N.O=NN1CCCCCC1(P(=O)([O-])[O-])P(=O)([O-])[O-].[Na+].[Pt+2]
2. CC(=O)N1Cc2cncnc2C1
3. Cc1[nH]nc(N)c1C(N)=O
4. Nc1ccc(-c2cc[cH-]c2)cc1.[Fe+2].c1cc[cH-]c1
5. Cc1ccc(N(C(=O)Nc2ccc(F)c(Cl)c2)C2=NCC(C)S2)cc1 (stereo unspecified)
6. Nc1nc(N)nc(-c2cc(Br)c(N)c(Br)c2)n1
7. CCOC(=O)C1=C(Nc2ccccc2)OC/C1=N\NC(=O)Cc1ccccc1
8. COc1ccc2c(c1OC)C(=O)O[C@@H]2[C@H]1c2c(cc3c(c2OC)OCO3)CCN1C

-12.6
-0.95
0.85
21.4
-5.05
3.3
10.2
-7.35

* * *

- experiment-notes: NCI Yeast Anticancer Drug Screen. Data for the rad50 strain (AID 155);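 note: 0% = growth of vehicle-only cultures of the same strain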
- protocol-conditions: S. cerevisiae rad50 strain growth inhibition; at 50.0 µM; active compounds read high
About 79,000 compounds went through this panel and 15% of them were active in at least one assay; those are over-represented in the sample as a whole.
Give growth inhibition for every item shown.
Answers are plain numbers, in %.

Example entries and their recorded answers appear below.
COc1ccc(OC)c(CCCC(=O)O)c1 ... 9.6
Cc1c(C(=N)N)oc2ccccc12 ... 6.3
Cc1c2cnccc2c(CO)c2[nH]c3ccccc3c12 ... 11.6
CCCCSCCOC(=O)Nc1ccc(Cl)cc1 ... 98.8
O=C(NNc1nc(CCl)cs1)c1ccccc1Cl ... -0.15

Please report the recorded growth inhibition for O=C(/C=C\c1ccccc1)Nc1c(Cl)cc(Cl)cc1Cl .
0.65

* * *

- experiment-notes: NCI Yeast Anticancer Drug Screen. Data for the bub3 strain (AID 167)
- protocol-conditions: S. cerevisiae bub3 mutant strain, at 50.0 µM, active compounds read high
Compounds without any hit were thinned out: in the full panel of roughly 79,000, 15% have a hit.
Answer FALSE if growth inhibition is under 10%, and TRUE if it is 10% or more.

For orientation, consider the following solved cases.
CC1(C)CS(=O)(=O)C(=O)N1CCC(=O)O ... FALSE
O=[N+]([O-])c1ccc(-c2ccc([N+](=O)[O-])cc2)cc1 ... TRUE
CC1CC(c2ccccc2)S(=O)(=O)O1 (stereo not drawn) ... TRUE
O=C(O)c1cc2cc(S(=O)(=O)O)ccc2cc1O ... FALSE
CCCCCCC(=O)c1ccc2ccccc2c1O ... FALSE
CCS(=O)(=O)Nc1ccc(NS(=O)(=O)CC)cc1 ... TRUE
O=C1CC2(CCCC2)C(=O)N1c1ccc(O)c(CN2CCCCC2)c1 ... FALSE

In the following, a different molecule is considered.
Can N#Cc1c(=O)[nH]c(=O)n2c1[nH]c1ccccc12 be said to have growth inhibition at or above 10%?
TRUE

* * *

- experiment-notes: NCI Yeast Anticancer Drug Screen. Data for the mec2-1 strain (AID 157)
- protocol-conditions: S. cerevisiae mec2-1 strain, at 50.0 µM, active compounds read high
The panel holds about 79,000 compounds, 15% with a hit somewhere; the sample as a whole holds those more often.
assay-endpoint: growth inhibition (%)
One number for each entry, in %.

Example entries and their recorded answers appear below.
NC(=O)NC(N)=O ... -10.4
FCCN(CCF)Cc1ccc2c(c1)OCO2 ... -12.3
O=C(O)c1ccccc1-c1ccccc1C(=O)O ... -9.6
Nc1ccncn1 ... -0.85

Lab note: each molecule below needs its growth inhibition filled in.
1. Cc1cc[n+](-c2nc3c([O-])n(C)c(=O)n(C)c-3n2)cc1
2. COC(=O)c1ccccc1NC(=O)C(=O)NNC(=O)c1ccncc1
3. Nc1ncnc2c1ncn2C[c-]1[c-][c-][c-][c-]1.[Fe].[c-]1[c-][c-][cH-][c-]1
4. CCOC(=O)CC1C(C)C(C)NC(C)C1C (configuration not stated)
5. N#C/C(=C1/Sc2c(nc[nH]c2=O)N1c1ccccc1)c1nc2ccccc2[nH]1
6. CC(=O)n1cc(CC(C)O)c(=O)[nH]c1=O (configuration not stated)

[10.6, -3, -23.8, -24.3, -14.4, -21]

* * *

Give growth inhibition for every item shown.
- experiment-notes: NCI Yeast Anticancer Drug Screen. Data for the cln2 rad14 strain (AID 165);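 note: 0% = growth equal to vehicle treated cultures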
- protocol-conditions: S. cerevisiae cln2 rad14 strain, at 50.0 µM, active compounds read high
This is part of a sample that, as a whole, favours compounds with a hit. Of some 79,000 tested, about 15% had one in any assay.
Numbers only, in %.

Example entries and their recorded answers appear below.
O=C1c2c(F)c(F)c(F)c(F)c2SC2=Nc3cccc4cccc(c34)N12 ... -14.5
Cc1cccc(C(C)C)c1NC(=O)/C(Cc1c([N+](=O)[O-])cccc1[N+](=O)[O-])=N/NC(=O)CC#N ... 11.2
COc1ccc(C2=NC(=O)OC2(C)C)cc1 ... -11
CC(=O)Nc1ccc2ccc3ccccc3c2c1 ... -19.1
Cc1cc(=O)oc2c1ccc1occc(=O)c12 ... 4.95
O=C1c2ccccc2C(O)(c2ccccc2)c2ccccc21 ... -21.6
c1ccc(-c2csc(-c3nc(-c4ccccc4)cs3)n2)cc1 ... -6.85
CN1C(=O)C(=C2CCCCC2)SC1=S ... -4.3

Lab note: each molecule below needs its growth inhibition filled in.
1. CO/C=C1/CCc2c(ccc3cc(OC)ccc23)C1=O
2. Cc1ccc(-n2c(O)c(N=Nc3ccccc3)c(=O)n(-c3ccccc3)c2=S)cc1
3. O=C1/C(=C/c2ccccc2)CN(C(=O)Oc2ccccc2)C/C1=C\c1ccccc1
4. COc1ccc(/C=N\N2CN(C(CC(N)=O)C(=O)O)C(O)(CCl)N=C2N)cc1OC (stereo unspecified)
5. C=C(CCC(Cl)C(O)CO)[Si](C)(C)C (stereo unspecified)

[-0.8, -30.7, 10.3, -5.65, 45.3]

Lab note: each molecule below needs its growth inhibition filled in.
1. CC(=O)Oc1ccc(C(c2ccccc2)c2ccccc2)c2ccccc12
2. O=N[C@@H]1CCC[C@H](Cl)C1
3. Cn1cnc([N+](=O)[O-])c1Sc1ccncc1S(N)(=O)=O

[2.85, 17.2, 2.1]

* * *

- experiment-notes: NCI Yeast Anticancer Drug Screen. Data for the cln2 rad14 strain (AID 165);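 note: 0% = growth equal to vehicle treated cultures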
- protocol-conditions: S. cerevisiae cln2 rad14 strain, at 50.0 µM, active compounds read high
About 79,000 compounds went through this panel and 15% of them were active in at least one assay; those are over-represented in the sample as a whole.
assay-endpoint: growth inhibition (%)
Answers are plain numbers, in %.

Example entries and their recorded answers appear below.
c1ccc(CCc2ccccn2)nc1 ... 7.2
O=C(O)c1cc2ccccc2c(N=Nc2cc(C(F)(F)F)ccc2Cl)c1O ... 5.4
CC(I)CNc1ccc(C(=O)O)c(O)c1 (stereo unspecified) ... 1
CC/C(C)=N/C(=O)NN ... 19.3
Nc1c(Br)cc(Br)c2c1CCC2 ... 1.4

Please report the recorded growth inhibition for O=C(c1ccccc1)c1cc[n+]([O-])cc1 .
-16.9

* * *

- experiment-notes: NCI Yeast Anticancer Drug Screen. Data for the mlh1 rad18 strain (AID 175)
- protocol-conditions: S. cerevisiae mlh1 rad18 strain growth inhibition; at 50.0 µM; active compounds read high
- Experimental: Growth inhibition of yeast strains with defined genetic alterations is measured as a screen for potential anti-cancer activity. Selected strains with alterations in DNA damage repair or cell cycle control were exposed to compounds and growth inhibition was measured relative to vehicle treated controls. The strain used in this assay is mlh1 rad18
Compounds without any hit were thinned out: in the full panel of roughly 79,000, 15% have a hit.
assay-endpoint: growth inhibition (%)
Give bare numbers, in %.

Example entries and their recorded answers appear below.
CC(CO)CCC(=O)C(C)C1CC2(C)CCC3C(CCC4CC(O)CCC43C)C2C12SCCS2 (stereo not drawn) ... -0.25
OC(c1ccccc1)c1c(-c2ccccc2)[nH]c(-c2ccccc2)c1C(O)c1ccccc1 (stereo not drawn) ... -6.9
Cc1cn(C2CC(O)C(CO)O2)c(=O)nc1NC1CCCCCCCCCCC1 (stereo not drawn) ... -6.4
CCOC(=O)c1c(C)c(C)n2c1NC(=O)C2 ... -13.9
CC1=CC(=O)/C(=C/N2CCNC2=S)C(=O)O1 ... 4.7

Lab note: each compound below needs its growth inhibition filled in.
1. Clc1cccc(NNc2cccc(Cl)c2)c1
2. Cn1c2ccccc2c2c3c(ccc21)C(=O)c1ccccc1C3=O
3. CCOC(=O)OCCOCCOC(=O)OCC

[-25.9, -2.5, 25.8]
